- procedure_text: Plasma pharmacokinetics after single and multiple oral doses (noncompartmental analysis)
- Assay type: in vivo, human
- test_context: human, plasma, oral, 110 mg, single dose 110 mg; read-out: Cmax, geometric mean (CV%)
quantity_measured: Cmax (ng/mL)
Give the value, in units of ng/mL, as a plain number.

# lookup: Cmax of COCCNCc1ccc(-c2cc3nccc(Oc4ccc(NC(=O)C5(C(=O)Nc6ccc(F)cc6)CC5)cc4F)c3s2)nc1
49.1

----------
- procedure_text: Plasma pharmacokinetics after single and multiple oral doses (noncompartmental analysis)
- Format: in vivo, human
- test_context: human, plasma, oral, 40 mg, single dose 40 mg; read-out: tmax, median (min–max)
quantity_measured: Tmax (h)
Give the value, in units of h, as a plain number.

# lookup: Tmax of COCCNCc1ccc(-c2cc3nccc(Oc4ccc(NC(=O)C5(C(=O)Nc6ccc(F)cc6)CC5)cc4F)c3s2)nc1
4.05

----------
- procedure_text: Plasma pharmacokinetics after single and multiple oral doses (noncompartmental analysis)
- Type: in vivo, human
- test_context: human, plasma, oral, 80 mg, single dose 80 mg; read-out: Cmax, geometric mean (CV%)
quantity_measured: Cmax (µg/mL)
Give the value, in units of µg/mL, as a plain number.

# lookup: Cmax of COCCNCc1ccc(-c2cc3nccc(Oc4ccc(NC(=O)C5(C(=O)Nc6ccc(F)cc6)CC5)cc4F)c3s2)nc1 [sitravatinib, Sitravatinib]
0.0317

----------
- procedure_text: Plasma pharmacokinetics after single and multiple oral doses (noncompartmental analysis)
- Type: in vivo, human
- test_context: human, plasma, oral; single dose 40 mg; read-out: AUC∞, geometric mean (CV%)
- Experimental: In the PK lead-in period, patients received a single oral dose of sitravatinib (10–200 mg) under fasted conditions with at least 200 mL of water, followed by PK sample collection for 3–7 days, depending on emerging PK information. […] PK samples were collected after a single dose during the PK lead-in period and following multiple oral doses during the study. Plasma PK samples were assayed for quantification of sitravatinib. The lower limit of quantification was 0.05 ng/mL. […]
quantity_measured: AUC(0-inf) (ng·h/mL)
Give the value, in units of ng·h/mL, as a plain number.

# lookup: AUC(0-inf) of COCCNCc1ccc(-c2cc3nccc(Oc4ccc(NC(=O)C5(C(=O)Nc6ccc(F)cc6)CC5)cc4F)c3s2)nc1 [sitravatinib, Sitravatinib]
478

----------
- procedure_text: Plasma pharmacokinetics after single and multiple oral doses (noncompartmental analysis)
- Type: in vivo, human
- test_context: human, plasma, oral, 150 mg, single dose 150 mg; read-out: Cmax, geometric mean (CV%)
- Method: In the PK lead-in period, patients received a single oral dose of sitravatinib (10–200 mg) under fasted conditions with at least 200 mL of water, followed by PK sample collection for 3–7 days, depending on emerging PK information. […] PK samples were collected after a single dose during the PK lead-in period and following multiple oral doses during the study. Plasma PK samples were assayed for quantification of sitravatinib. The lower limit of quantification was 0.05 ng/mL. […]
quantity_measured: Cmax (µg/mL)
Give the value, in units of µg/mL, as a plain number.

# lookup: Cmax of COCCNCc1ccc(-c2cc3nccc(Oc4ccc(NC(=O)C5(C(=O)Nc6ccc(F)cc6)CC5)cc4F)c3s2)nc1
0.0693

----------
- procedure_text: Plasma pharmacokinetics after single and multiple oral doses (noncompartmental analysis)
- Format: in vivo, human
- test_context: human, plasma, oral; single dose 20 mg; read-out: t1/2, arithmetic mean (CV%) (converted)
quantity_measured: half-life (h)
Give the value, in units of h, as a plain number.

# lookup: half-life of COCCNCc1ccc(-c2cc3nccc(Oc4ccc(NC(=O)C5(C(=O)Nc6ccc(F)cc6)CC5)cc4F)c3s2)nc1
47

----------
- procedure_text: Plasma pharmacokinetics after single and multiple oral doses (noncompartmental analysis)
- Type: in vivo, human
- test_context: human, plasma, oral; 10 mg QD, Cycle 1 Day 8; read-out: AUCτ,ss, geometric mean (CV%)
quantity_measured: AUC (ng·h/mL)
Give the value, in units of ng·h/mL, as a plain number.

# lookup: AUC of COCCNCc1ccc(-c2cc3nccc(Oc4ccc(NC(=O)C5(C(=O)Nc6ccc(F)cc6)CC5)cc4F)c3s2)nc1
235

----------
- procedure_text: Plasma pharmacokinetics after single and multiple oral doses (noncompartmental analysis)
- Assay type: in vivo, human
- test_context: human, plasma, oral; single dose 10 mg; read-out: Vz/F, geometric mean (CV%)
quantity_measured: Vd/F (L)
Give the value, in units of L, as a plain number.

# lookup: Vd/F of COCCNCc1ccc(-c2cc3nccc(Oc4ccc(NC(=O)C5(C(=O)Nc6ccc(F)cc6)CC5)cc4F)c3s2)nc1 [sitravatinib, Sitravatinib]
3720

----------
- procedure_text: Plasma pharmacokinetics after single and multiple oral doses (noncompartmental analysis)
- Type: in vivo, human
- test_context: human, plasma, oral; 150 mg QD, Cycle 1 Day 15; read-out: AUCτ,ss, geometric mean (CV%)
quantity_measured: AUC

# lookup: AUC of COCCNCc1ccc(-c2cc3nccc(Oc4ccc(NC(=O)C5(C(=O)Nc6ccc(F)cc6)CC5)cc4F)c3s2)nc1
2180 ng·h/mL

----------
- procedure_text: Plasma pharmacokinetics after single and multiple oral doses (noncompartmental analysis)
- Format: in vivo, human
- test_context: human, plasma, oral, 80 mg, 80 mg QD, Cycle 1 Day 15; read-out: tmax,ss, median (min–max)
quantity_measured: Tmax (h)
Give the value, in units of h, as a plain number.

# lookup: Tmax of COCCNCc1ccc(-c2cc3nccc(Oc4ccc(NC(=O)C5(C(=O)Nc6ccc(F)cc6)CC5)cc4F)c3s2)nc1 [sitravatinib, Sitravatinib]
4.01

----------
- procedure_text: Plasma pharmacokinetics after single and multiple oral doses (noncompartmental analysis)
- Format: in vivo, human
- test_context: human, plasma, oral; single dose 200 mg; read-out: AUC∞, geometric mean (CV%)
quantity_measured: AUC(0-inf) (ng·h/mL)
Give the value, in units of ng·h/mL, as a plain number.

# lookup: AUC(0-inf) of COCCNCc1ccc(-c2cc3nccc(Oc4ccc(NC(=O)C5(C(=O)Nc6ccc(F)cc6)CC5)cc4F)c3s2)nc1
4000

----------
- procedure_text: Plasma pharmacokinetics after single and multiple oral doses (noncompartmental analysis)
- Assay type: in vivo, human
- test_context: human, plasma, oral; single dose 150 mg; read-out: t1/2, arithmetic mean (CV%) (converted)
quantity_measured: half-life (h)
Give the value, in units of h, as a plain number.

# lookup: half-life of COCCNCc1ccc(-c2cc3nccc(Oc4ccc(NC(=O)C5(C(=O)Nc6ccc(F)cc6)CC5)cc4F)c3s2)nc1 [sitravatinib, Sitravatinib]
42.1

----------
- procedure_text: Plasma pharmacokinetics after single and multiple oral doses (noncompartmental analysis)
- Type: in vivo, human
- test_context: human, plasma, oral; single dose 20 mg; read-out: AUC∞, geometric mean (CV%)
quantity_measured: AUC(0-inf) (ng·h/mL)
Give the value, in units of ng·h/mL, as a plain number.

# lookup: AUC(0-inf) of COCCNCc1ccc(-c2cc3nccc(Oc4ccc(NC(=O)C5(C(=O)Nc6ccc(F)cc6)CC5)cc4F)c3s2)nc1
501

----------
- procedure_text: Plasma pharmacokinetics after single and multiple oral doses (noncompartmental analysis)
- Format: in vivo, human
- test_context: human, plasma; single oral 10–200 mg, fasting; read-out: Arithmetic mean terminal elimination t1/2, range across dose levels
quantity_measured: half-life

# lookup: half-life of COCCNCc1ccc(-c2cc3nccc(Oc4ccc(NC(=O)C5(C(=O)Nc6ccc(F)cc6)CC5)cc4F)c3s2)nc1 [sitravatinib, Sitravatinib]
42.1 to 51.5 h

----------
- procedure_text: Plasma pharmacokinetics after single and multiple oral doses (noncompartmental analysis)
- Format: in vivo, human
- test_context: human, plasma, oral, 10 mg, 10 mg QD, Cycle 1 Day 8; read-out: Cmax,ss, geometric mean (CV%)
quantity_measured: Cmax (ng/mL)
Give the value, in units of ng/mL, as a plain number.

# lookup: Cmax of COCCNCc1ccc(-c2cc3nccc(Oc4ccc(NC(=O)C5(C(=O)Nc6ccc(F)cc6)CC5)cc4F)c3s2)nc1
11.4

----------
- procedure_text: Plasma pharmacokinetics after single and multiple oral doses (noncompartmental analysis)
- Format: in vivo, human
- test_context: human, plasma, oral; 120 mg QD, Cycle 1 Day 15; read-out: AUCτ,ss, geometric mean (CV%)
quantity_measured: AUC
Note: a bare number is incomplete; add the unit.

# lookup: AUC of COCCNCc1ccc(-c2cc3nccc(Oc4ccc(NC(=O)C5(C(=O)Nc6ccc(F)cc6)CC5)cc4F)c3s2)nc1
1600 ng·h/mL

----------
- procedure_text: Plasma pharmacokinetics after single and multiple oral doses (noncompartmental analysis)
- Assay type: in vivo, human
- test_context: human, plasma, oral; single dose 120 mg; read-out: t1/2, arithmetic mean (CV%) (converted)
quantity_measured: half-life (h)
Give the value, in units of h, as a plain number.

# lookup: half-life of COCCNCc1ccc(-c2cc3nccc(Oc4ccc(NC(=O)C5(C(=O)Nc6ccc(F)cc6)CC5)cc4F)c3s2)nc1
49.3
